Hello, the source for this data is patent US8362000B2, in case you need it.

Entries and their measured Kd follow.
# assay target: mutant MGL (Homo sapiens, UniProt Q99685, L169S/L176S)
# Sequence (Q99685 whole entry L169S/L176S): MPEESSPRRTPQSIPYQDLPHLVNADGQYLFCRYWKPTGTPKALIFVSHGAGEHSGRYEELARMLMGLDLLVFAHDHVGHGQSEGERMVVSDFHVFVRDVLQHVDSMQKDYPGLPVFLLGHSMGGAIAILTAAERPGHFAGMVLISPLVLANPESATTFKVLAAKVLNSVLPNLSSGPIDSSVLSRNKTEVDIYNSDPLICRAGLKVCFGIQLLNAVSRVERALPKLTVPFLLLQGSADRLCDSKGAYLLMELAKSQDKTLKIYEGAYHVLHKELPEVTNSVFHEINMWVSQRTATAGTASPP
# test name: MGL ThermoFluor assay - mutant
# Type: binding
# particulars: ThermoFluor thermal stability binding assay, read-out: MGL mutant ThermoFluor Kd
property name: Kd (nM)

>>> df
                      smiles_representation  units_label  inequality_symbol  numeric_result
0  O=C(c1nccs1)N1CCN(C2CN(C(=O)c3cccc4oc(-c5ccccc5Cl)nc34)C2)CC1           nM                  =               7
1  COc1cc(C(=O)N2CC(N3CCN(C(=O)c4cscn4)CC3)C2)ccc1-c1ccc(F)c(Cl)c1           nM                  =             9.1
2  CC(=O)Nc1nc(C(=O)N2CCN(C3CN(C(=O)c4ccc(-c5ccccc5)cc4)C3)CC2)cs1           nM                  >           76700
3  O=C(c1cc[nH]c1)N1CCN(C2CN(C(=O)c3ccc(-c4ccccc4)cc3)C2)CC1           nM                  =              80
4  O=C(c1ccccc1)N1CCN(C2CN(C(=O)c3ccc(-c4ccc(C(F)(F)F)cc4)s3)C2)CC1           nM                  =             125
5  CS(=O)(=O)c1cccc(-c2ccc(C(=O)N3CC(N4CCN(C(=O)c5ccccc5)CC4)C3)cc2)c1           nM                  =             143
6  O=C(c1ccc(OCc2ccncc2)cc1)N1CC(N2CCN(C(=O)c3nccs3)CC2)C1           nM                  =             338
